# pKi values compiled below
Biological target: histamine-3 (H3) receptor (Homo sapiens)
Assay: Methyl Histamine Binding in Human Histamine-3 Receptor Cell Line
Conditions: membranes of stably transfected HEK293T cells, radioligand 1 nM, Ki from IC50 by Cheng-Prusoff
pKi: −log10 of the molar value. Structures can show the parent of a compound that is named as a salt.

Here is how some compounds turned out for pKi.
[ask] Any idea what pKi was measured for c1ccc2c(c1)ccn2Cc1ccc(-c2nc(CN3CCCC3)co2)cc1 [Example 81, Hydrochloride] ?
[reply] 7.00 to 7.30

[ask] Follow-up entry: CC1(C)CC2CC(C)(CN2Cc2cnc(-c3ccc(Cn4cnc5ccccc54)cc3)o2)C1 (stereo not drawn)
[reply] < 7.00

Below: the item to evaluate.
[ask] Given `c1ccc2c(c1)ncn2-c1ccc(-c2nc(CN3CCCCC3)co2)cc1` , state its recorded pKi.
[reply] ≥ 8.00

---

Measured pKi of individual entries
Target: histamine-3 (H3) receptor (Homo sapiens)
Experiment: Methyl Histamine Binding in Human Histamine-3 Receptor Cell Line
Conditions: membranes of stably transfected HEK293T cells, radioligand 1 nM, Ki from IC50 by Cheng-Prusoff
pKi: −log10 of the molar value. Structures can show the parent of a compound that is named as a salt.

Worked set:
[ask] Query the reported pKi for histamine-3 (H3) receptor (Homo sapiens); item: `Brc1oc(-c2ccc(Cn3cnc4ccccc43)cc2)nc1CN1CCCC1`
[reply] 7.30 to 7.60

[ask] Next up: `CN(C)Cc1coc(-c2ccc(Cn3cnc4ccccc43)cc2)n1`
[reply] 7.60 to 8.00

[ask] Input `c1ccc2c(c1)ncn2Cc1ccc(-c2nc(CN3CCCCC3)co2)cc1`
[reply] ≥ 8.00

[ask] Follow-up entry: `c1ccc2c(c1)ncn2Cc1ccc(-c2nc(CN3CCCCCC3)cs2)cc1`
[reply] ≥ 8.00

[ask] Then `CCN(C)Cc1coc(-c2ccc(-n3cnc4ccccc43)cc2)n1` ?
[reply] 7.60 to 8.00

[ask] Next entry: `Fc1ccc2cnn(Cc3ccc(-c4nc(CN5CCCC5)co4)cc3)c2c1`
[reply] 7.30 to 7.60

[ask] Would you mind doing `C[C@@H]1CCCN1Cc1coc(-c2ccc(Cn3ncc4ccccc43)cc2)n1` as well?
[reply] 7.00 to 7.30

[ask] Param item: Cn1c(CN2CCCC2)cnc1-c1ccc(Cn2cnc3ccccc32)cc1 [Example 139, fumarate salt]
[reply] 7.00 to 7.30

Others:
[ask] Any idea what pKi came out for `CCN(C)Cc1coc(-c2ccc(-c3nc4ccccc4n3C)cc2)n1` on histamine-3 (H3) receptor (Homo sapiens)?
[reply] ≥ 8.00

[ask] Similarly, `C[C@@H]1CCCN1Cc1coc(-c2ccc(Cn3ncc4cc(F)ccc43)cc2)n1` ?
[reply] 7.00 to 7.30

[ask] What about CC1CCCN1Cc1cnc(-c2ccc(Cn3cnc4ccccc43)cc2)o1 (centres unmarked) ?
[reply] ≥ 8.00

---

Collected Ki values appear next to each entry.
Target: histamine-3 (H3) receptor (Homo sapiens, UniProt Q9Y5N1)
Sequence (Q9Y5N1 whole entry): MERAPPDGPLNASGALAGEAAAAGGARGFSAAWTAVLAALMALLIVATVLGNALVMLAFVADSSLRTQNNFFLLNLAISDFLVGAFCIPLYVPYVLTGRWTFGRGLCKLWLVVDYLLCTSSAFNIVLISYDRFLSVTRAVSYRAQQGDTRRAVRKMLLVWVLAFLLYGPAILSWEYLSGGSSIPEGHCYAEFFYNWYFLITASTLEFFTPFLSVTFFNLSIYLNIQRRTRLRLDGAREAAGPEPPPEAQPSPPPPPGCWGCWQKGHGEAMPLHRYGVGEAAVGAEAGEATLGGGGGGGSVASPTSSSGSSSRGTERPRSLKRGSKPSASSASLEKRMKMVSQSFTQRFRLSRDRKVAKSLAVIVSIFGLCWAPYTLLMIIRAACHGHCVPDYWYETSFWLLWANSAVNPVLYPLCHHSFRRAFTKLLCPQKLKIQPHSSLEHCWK
Test: Methyl Histamine Binding in Human Histamine-3 Receptor Cell Line
Conditions: membranes of stably transfected HEK293T cells, radioligand 1 nM, Ki from IC50 by Cheng-Prusoff
Counter-ions that a name gives are not always drawn.

[ask] Which Ki is reported with histamine-3 (H3) receptor (Homo sapiens, UniProt Q9Y5N1) for this entry: Cn1c(CN2CCCC2)cnc1-c1ccccc1 [Example 143, fumarate salt] ?
[reply] > 100 nM

[ask] Okay, and `Cn1c(-c2ccc(-c3nc(CN4CCCC4)co3)cc2)nc2ccccc21` ?
[reply] ≤ 10 nM

[ask] For `c1ccc(-c2nc3ccccc3n2Cc2ccc(-c3nc(CN4CCCCCC4)co3)cc2)cc1` then?
[reply] 25.1 to 50 nM

[ask] Would you kindly repeat that for `c1ccc2c(c1)ncn2-c1ccc(-c2nc(CN3CCCCCC3)co2)cc1` ?
[reply] 25.1 to 50 nM

[ask] Param item: CC1CCCN(Cc2coc(-c3ccc(Cn4cnc5ccccc54)cc3)n2)C1 (stereo not drawn)
[reply] ≤ 10 nM

[ask] Try the compound `C[C@@H]1CCCN1Cc1coc(-c2ccc(Cn3c(C(F)(F)F)nc4ccccc43)cc2)n1`
[reply] 10.1 to 25 nM

[ask] Subsequent entry: `Cn1c(-c2ccc(-c3nc(CN4CCCCC4)co3)cc2)nc2ccccc21`
[reply] ≤ 10 nM

[ask] Record: CC1CCCN(Cc2cnc(-c3ccc(Cn4cnc5ccccc54)cc3)o2)C1 (stereo not drawn)
[reply] > 100 nM

[ask] Now this one: `c1ccc2c(c1)ncn2Cc1ccc(-c2ncc(CN3CCCC3)o2)cc1`
[reply] > 100 nM
